Data provenance is the supplement of paper PMC4466140.

assay-target: SpPex13
assay-info: SPOT peptide array binding signal intensity (averaged, normalized) (arbitrary units (background-subtracted, floor 0; scale differs between SH3 domains)); higher = stronger binding of the SH3 domain to the peptide
I'd appreciate it if you could supply SPOT peptide array binding signal intensity values for the items below.
Answers are plain numbers.

Check out these entries, answers already filled in.
- binder: "ISRRRLPVIMHRLKM"
  measured-value: 22
- binder: "VLRFLGFPLPIFEKG"
  measured-value: 5
- binder: "KIRRSSLMIPNPQQF"
  measured-value: 162

We next turn to a different binder, shown below.
Given item QTMRQAPKRPDADVA , the value recorded as its SPOT peptide array binding signal intensity is 35
